test system: NCI-H1993; assay: relative viability (nuclei count vs DMSO), 5 days (fraction); higher = more cells survive; conditions: first compound 0.8 µM
quantity.name: relative viability
The response must contain the number and no unit.

Solved cases (5 shown):
compound | system.name | relative viability
C=C1C(=O)O[C@@H](CCCCCCCC)[C@@H]1C(=O)O [C-75] + O=C(c1cc(Cc2n[nH]c(=O)c3ccccc23)ccc1F)N1CCN(C(=O)C2CC2)CC1 [Olaparib] (partner 8 µM) | NCI-H1993 | 0.676
Oc1nc(-c2ccc(C(F)(F)F)cc2)nc2c1CSCC2 [XAV939] + Cc1nc(NC(=O)N2CCC[C@H]2C(N)=O)sc1-c1ccnc(C(C)(C)C(F)(F)F)c1 [Alpelisib] (partner 2 µM) | NCI-H1993 | 0.635
Oc1nc(-c2ccc(C(F)(F)F)cc2)nc2c1CSCC2 [XAV939] + CC1(C)CCC(c2ccc(Cl)cc2)=C(CN2CCN(c3ccc(C(=O)NS(=O)(=O)c4ccc(N[C@H](CCN5CCOCC5)CSc5ccccc5)c(S(=O)(=O)C(F)(F)F)c4)cc3)CC2)C1 [Navitoclax] (partner 0.5 µM) | NCI-H1993 | 0.698
C=C1C(=O)O[C@@H](CCCCCCCC)[C@@H]1C(=O)O [C-75] + COc1cccc2cc(-c3nc([C@H]4CC[C@H](C(=O)O)CC4)n4ncnc(N)c34)[nH]c12 [OSI-027] (partner 0.5 µM) | NCI-H1993 | 0.491
Oc1nc(-c2ccc(C(F)(F)F)cc2)nc2c1CSCC2 [XAV939] + O=C(CCCCCCC(=O)Nc1ccccc1)NO [Vorinostat] (partner 1 µM) | NCI-H1993 | 0.691

Query :: Give me measured relative viability, please, for this compound: C=C1C(=O)O[C@@H](CCCCCCCC)[C@@H]1C(=O)O [C-75] + COc1cc2c(Oc3ccc(NC(=O)C4(C(=O)Nc5ccc(F)cc5)CC4)cc3F)ccnc2cc1OCCCN1CCOCC1 [Foretinib] (partner 0.25 µM)
Result :: 0.851

Query :: Provide measured relative viability value, entry: Oc1nc(-c2ccc(C(F)(F)F)cc2)nc2c1CSCC2 [XAV939] + COc1cc2c(Oc3ccc(NC(=O)C4(C(=O)Nc5ccc(F)cc5)CC4)cc3F)ccnc2cc1OCCCN1CCOCC1 [Foretinib] (partner 0.25 µM)
Result :: 0.688
